src = patent US12606572B2

- target: KRAS G12S (Homo sapiens, UniProt P01116, G12S)
- Sequence (P01116 1-188 isoform P01116-2 G12S): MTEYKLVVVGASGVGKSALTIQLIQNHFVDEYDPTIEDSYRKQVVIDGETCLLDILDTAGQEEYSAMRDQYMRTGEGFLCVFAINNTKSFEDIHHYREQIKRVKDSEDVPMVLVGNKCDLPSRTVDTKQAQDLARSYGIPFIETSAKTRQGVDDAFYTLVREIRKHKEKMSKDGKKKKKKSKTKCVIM
- experiment_description: HTRF assay, interaction of GST-tagged K-Ras with His-tagged hSOS1 (KRAS G12S)
- condition_context: <500 nM, read-out: Inhibition of KRAS G12S (IC50)
pIC50: −log10 of the molar value.
outcome_measure: pIC50

1) Cc1c(C#N)ncn1C(=O)N1C[C@@H](CN2CCOc3c(Cl)c(-c4ccc(F)c5sc(N)c(C#N)c45)c(F)c4nc(OC[C@@]56CCCN5C[C@H](F)C6)nc2c34)[C@H]1C1(C)CC1 (single isomer, unassigned) [Compound 452] :: > 6.30
2) Cc1cn(C(=O)N2CC[C@@H](N3C[C@H](C)Oc4nc(-c5cc(N)c(F)c(C)c5C(F)(F)F)c(F)c5nc(OC[C@@]67CCCN6C[C@H](F)C7)nc3c45)[C@H]2C)c(C)n1 [Compound 430] :: > 6.30
3) N#Cc1cn(C(=O)N2CC(CN3CCOc4c(Cl)c(-c5ccc(F)c6sc(N)c(C#N)c56)c(F)c5nc(OC[C@@]67CCCN6C[C@H](F)C7)nc3c45)C2)cn1 [Compound 436] :: > 6.30
